Tested on: adhesion of H9 cells to MAdCAM-1
Test: Cell adhesion assay: H9 cells to MAdCAM-1-Fc
Format: cell-based, human
Details: Mn++ or PMA-activated H9 cells
Procedure: Cell adhesion assays. […] The number of adherent cells was determined by counting the number of adherent cells in four independent fields at 100× magnification under an inverted microscope. […] The fluorescence of CMFDA-labeled adherent cells was measured using a VICTOR 1420 multilabel counter (Wallac). […]
No end group written: not given here. *: point of attachment. Biotin = O=C1N[C@H]2[C@H](CS[C@H]2CCCCC(=O)*)N1
MEASURED_PROPERTY: inhibition of H9 cell adhesion to MAdCAM-1

>  <SUBSTANCE>
β7-5: extreme C-terminal control peptide of β7cyt (SEQ ID NO. 23) fused to penetratin (Biotin-RQIKIWFQNRRMKWKKTTTINPRFQEADSPTL; not fully specified)

>  <TESTED_SYSTEM>
adhesion of H9 cells to MAdCAM-1

>  <OBSERVED>
completely ineffective

$$$$
>  <SUBSTANCE>
QLNWKQDSNPLYKSAITTT [β7-4]

>  <TESTED_SYSTEM>
adhesion of H9 cells to MAdCAM-1

>  <OBSERVED>
completely ineffective

$$$$

###

test system: adhesion of H9 cells to VCAM-1; experiment: Cell adhesion assay: H9 cells to VCAM-1-Fc; type: cell-based, human; conditions: Mn++ or PMA-activated H9 cells
No end group written: not given here. *: point of attachment. Biotin = O=C1N[C@H]2[C@H](CS[C@H]2CCCCC(=O)*)N1

>  <SUBSTANCE>
β7-5: extreme C-terminal control peptide of β7cyt (SEQ ID NO. 23) fused to penetratin (Biotin-RQIKIWFQNRRMKWKKTTTINPRFQEADSPTL; not fully specified)

>  <inhibition of H9 cell adhesion to VCAM-1>
completely ineffective

$$$$
>  <SUBSTANCE>
QLNWKQDSNPLYKSAITTT [β7-4]

>  <inhibition of H9 cell adhesion to VCAM-1>
completely ineffective

$$$$
